target: SARS-CoV-2 nsp15 endoribonuclease (Severe acute respiratory syndrome coronavirus 2); type: biochemical; details: 100 µM compound; 500 nM nsp15, 1 µM 16 nt U substrate; 20 min at 30°C; n=3
Structures can show the parent of a compound that is named as a salt.
The entries below come with measured mean cleavage (%) values attached.

- COMPOUND: "CC#C[C@]1(O)CC[C@H]2[C@@H]3CCC4=CC(=O)CCC4=C3[C@@H](c3ccc(N(C)C)cc3)C[C@@]21C [Mifepristone]"
  mean cleavage (%): 63
- COMPOUND: "C=C(C)[C@@H]1CC[C@]2(C(=O)O)CC[C@]3(C)[C@H](CC[C@@H]4[C@@]5(C)CC[C@H](O)C(C)(C)[C@@H]5CC[C@]43C)[C@@H]12 [Betulinic acid]"
  mean cleavage (%): 51
- COMPOUND: "Oc1cc2c(cc1O)C(c1ccccc1)CNCC2 (stereo not shown) [SKF 38393 hydrobromide]"
  mean cleavage (%): 62
- COMPOUND: "CC(C)(C)c1nc2c3cc[nH]c(=O)c3c3cc(F)ccc3c2[nH]1 [JAK Inhibitor I]"
  mean cleavage (%): 65
- COMPOUND: "O=Nc1ccc2oc(=O)ccc2c1 [NOBP]"
  mean cleavage (%): 63
- COMPOUND: "O=C1C(SCCO)=C(SCCO)C(=O)c2ccccc21 [NSC95397]"
  mean cleavage (%): 9
- COMPOUND: "Cc1ncc([N+](=O)[O-])n1CC(O)CCl (stereo not shown) [Ornidazole]"
  mean cleavage (%): 62
- COMPOUND: "O=C1c2cc([N+](=O)[O-])ccc2-n2c1nc1ccccc1c2=O [GNF-PF-3777]"
  mean cleavage (%): 60
- COMPOUND: "CC(COc1ccccc1)N(CCCl)Cc1ccccc1 (stereo not shown) [Phenoxybenzamine]"
  mean cleavage (%): 58
- COMPOUND: "O=c1cc(-c2ccccc2)oc2cc(O)c(O)c(O)c12 [Baicalein]"
  mean cleavage (%): 64

---

target: SARS-CoV-2 nsp15 endoribonuclease (Severe acute respiratory syndrome coronavirus 2, UniProt P0DTD1); format: biochemical; conditions: 100 µM compound; 500 nM nsp15, 1 µM 16 nt U substrate; 20 min at 30°C; n=3

- COMPOUND: "Cn1cnc2nc(NCCO)nc(NCc3ccccc3)c21"
  DISPLAY_UNIT: "%"
  mean cleavage (%): 60
- COMPOUND: "CCCNS(=O)(=O)Nc1ncnc(OCCOc2ncc(Br)cn2)c1-c1ccc(Br)cc1"
  DISPLAY_UNIT: "%"
  mean cleavage (%): 64
- COMPOUND: "Cc1c(COc2cc(OCc3cccc(C#N)c3)c(CN3C[C@H](O)C[C@@H]3C(=O)O)cc2Cl)cccc1-c1ccc2c(c1)OCCO2"
  DISPLAY_UNIT: "%"
  mean cleavage (%): 58
- COMPOUND: "Cl.Cl.NCCC(=O)NCCc1cnc[nH]1 [Carcinine dihydrochloride]"
  DISPLAY_UNIT: "%"
  mean cleavage (%): 76

---

molecular target: SARS-CoV-2 nsp15 endoribonuclease (Severe acute respiratory syndrome coronavirus 2); assay: biochemical; assay type: biochemical
pIC50: −log10 of the molar value.

- MOLECULE: "O=C1C(SCCO)=C(SCCO)C(=O)c2ccccc21 [NSC95397]"
  pIC50: 4.37

---

molecular target: SARS-CoV-2 nsp15 endoribonuclease (Severe acute respiratory syndrome coronavirus 2, UniProt P0DTD1)
Where a name gives a salt, the structure may show the parent alone.

- MOLECULE: "Oc1cc2c(cc1O)C(c1ccccc1)CNCC2 (centres unmarked) [SKF 38393 hydrobromide]"
  activity: "65%"
- MOLECULE: "O=c1cc(-c2ccccc2)oc2cc(O)c(O)c(O)c12"
  activity: "80%"
- MOLECULE: "Cc1ncc([N+](=O)[O-])n1CC(O)CCl (centres unmarked)"
  activity: "66%"
- MOLECULE: "CC(COc1ccccc1)N(CCCl)Cc1ccccc1 (centres unmarked)"
  activity: "37%"
- MOLECULE: "CC#C[C@]1(O)CC[C@H]2[C@@H]3CCC4=CC(=O)CCC4=C3[C@@H](c3ccc(N(C)C)cc3)C[C@@]21C"
  activity: "85%"
